System: RXRa DBDmut IVT, anti-RXR (DBD mutation: RXRa K156A/R161A, NR concentration 90 nM)
Assay: PBM binding z-score (relative to random genomic background probes); higher = stronger binding; sequences stand for … in GC…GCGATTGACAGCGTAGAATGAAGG
Everything with PBM binding z-score lower than 0.4 is Condition not met; everything else, including exactly 0.4, is Condition met.

The following sequences have reported results that may help.
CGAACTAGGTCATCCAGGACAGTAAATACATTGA: Condition met
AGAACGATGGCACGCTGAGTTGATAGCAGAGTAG: Condition not met
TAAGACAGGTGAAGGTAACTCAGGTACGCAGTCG: Condition not met
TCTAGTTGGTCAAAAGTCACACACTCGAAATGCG: Condition met

Query :: Given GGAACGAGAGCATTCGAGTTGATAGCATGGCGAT , state whether its PBM binding z-score is at least 0.4.
Result :: Condition met

###

Tested on: PPARg:RXRa 270nM:90nM, anti-RXR (NR concentration 270 nM, RXRa partner concentration 90 nM)
Test: PBM binding z-score (relative to random genomic background probes); higher = stronger binding; sequences stand for … in GC…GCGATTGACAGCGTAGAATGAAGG
Everything with PBM binding z-score lower than 3 is Condition not met; everything else, including exactly 3, is Condition met.

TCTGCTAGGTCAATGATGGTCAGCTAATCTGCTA: Condition not met

Query :: Given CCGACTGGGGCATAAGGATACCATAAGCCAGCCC , state whether its PBM binding z-score is at least 3.
Result :: Condition not met

Query :: Given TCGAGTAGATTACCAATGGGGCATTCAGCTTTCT , state whether its PBM binding z-score is at least 3.
Result :: Condition not met

Query :: Given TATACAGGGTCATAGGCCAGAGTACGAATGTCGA , state whether its PBM binding z-score is at least 3.
Result :: Condition met

Query :: Given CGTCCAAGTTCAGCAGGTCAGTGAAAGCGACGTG , state whether its PBM binding z-score is at least 3.
Result :: Condition not met

Query :: Given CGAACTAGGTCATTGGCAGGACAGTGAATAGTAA , state whether its PBM binding z-score is at least 3.
Result :: Condition met

###

Entries and their measured PBM binding z-score follow.
Tested on: RARb homodimer (NR concentration 270 nM)
Assay: PBM binding z-score (relative to random genomic background probes); higher = stronger binding; sequences stand for … in GC…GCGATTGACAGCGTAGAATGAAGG
// print number alone

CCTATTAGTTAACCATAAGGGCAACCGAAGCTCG: 1.66
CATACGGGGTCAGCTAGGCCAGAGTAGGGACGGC: 4
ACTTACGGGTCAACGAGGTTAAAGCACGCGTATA: 3.82
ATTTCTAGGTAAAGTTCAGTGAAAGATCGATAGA: 2.55
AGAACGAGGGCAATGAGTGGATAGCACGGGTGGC: 0.709

# ---- query sequence ----
Per the record, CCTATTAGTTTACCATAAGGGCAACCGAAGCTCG has PBM binding z-score of 1.96

###

Test system: RARg homodimer (NR concentration 270 nM)
Experiment: PBM binding z-score (relative to random genomic background probes); higher = stronger binding; sequences stand for … in GC…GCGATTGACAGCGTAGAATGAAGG
Everything with PBM binding z-score lower than 2 is F; everything else, including exactly 2, is T.

The following sequences have reported results that may help.
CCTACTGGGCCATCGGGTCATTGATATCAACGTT: F
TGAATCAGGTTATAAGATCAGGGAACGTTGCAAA: F
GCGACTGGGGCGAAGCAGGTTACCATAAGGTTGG: F

Query :: Given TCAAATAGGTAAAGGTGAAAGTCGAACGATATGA , state whether its PBM binding z-score is at least 2.
Result :: F

Query :: Given TCATACAGGTAAAAGGTGAAAGTCGGTGTGGTAA , state whether its PBM binding z-score is at least 2.
Result :: F

Query :: Given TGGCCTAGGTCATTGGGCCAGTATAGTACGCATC , state whether its PBM binding z-score is at least 2.
Result :: T

Query :: Given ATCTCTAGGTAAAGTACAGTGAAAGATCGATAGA , state whether its PBM binding z-score is at least 2.
Result :: F

###

Test system: VDR:RXRa (NR concentration 270 nM, RXRa partner concentration 90 nM)
Experiment: PBM binding z-score (relative to random genomic background probes); higher = stronger binding; sequences stand for … in GC…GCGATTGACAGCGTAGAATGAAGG
measure.name: PBM binding z-score
// print number alone

These recorded examples may help you get a feel for the data.
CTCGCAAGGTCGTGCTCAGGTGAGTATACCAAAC: 2.24
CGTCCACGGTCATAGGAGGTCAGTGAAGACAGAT: 3.27

Per the record, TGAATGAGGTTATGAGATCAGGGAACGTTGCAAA has PBM binding z-score of 0.987

Per the record, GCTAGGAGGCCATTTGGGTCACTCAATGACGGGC has PBM binding z-score of 1.83

Per the record, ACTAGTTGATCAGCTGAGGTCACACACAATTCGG has PBM binding z-score of 4.02

Per the record, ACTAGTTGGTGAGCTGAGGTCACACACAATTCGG has PBM binding z-score of 3.55

###

Entries and their measured PBM binding z-score follow.
Test system: LXRb:RXRa (NR concentration 270 nM, RXRa partner concentration 90 nM)
Experiment: PBM binding z-score (relative to random genomic background probes); higher = stronger binding; sequences stand for … in GC…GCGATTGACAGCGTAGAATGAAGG
// print number alone

These recorded examples may help you get a feel for the data.
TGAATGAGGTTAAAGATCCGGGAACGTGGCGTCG: 1.13
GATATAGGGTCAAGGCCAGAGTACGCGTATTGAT: 3.91
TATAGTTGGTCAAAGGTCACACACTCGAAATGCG: 5.5
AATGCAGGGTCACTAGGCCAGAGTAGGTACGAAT: 3.54
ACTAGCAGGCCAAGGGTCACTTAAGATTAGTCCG: 3

Per the record, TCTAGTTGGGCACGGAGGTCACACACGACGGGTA has PBM binding z-score of 2.66

Per the record, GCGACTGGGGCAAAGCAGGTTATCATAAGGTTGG has PBM binding z-score of 0.318

###

Test system: RARb homodimer (NR concentration 270 nM)
Test: PBM binding z-score (relative to random genomic background probes); higher = stronger binding; sequences stand for … in GC…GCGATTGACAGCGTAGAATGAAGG
Classes (PBM binding z-score): bin 1 = under 0.6, bin 2 = from 0.6 up to 2, bin 3 = 2 and over

The following sequences have reported results that may help.
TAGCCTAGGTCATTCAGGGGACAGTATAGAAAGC: bin 3
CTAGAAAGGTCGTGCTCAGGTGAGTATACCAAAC: bin 3
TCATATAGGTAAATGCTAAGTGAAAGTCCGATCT: bin 1

Query :: Which bin, given its PBM binding z-score, does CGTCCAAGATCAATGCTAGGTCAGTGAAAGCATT occupy?
Result :: bin 3

Query :: Which bin, given its PBM binding z-score, does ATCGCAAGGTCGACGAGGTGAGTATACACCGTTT occupy?
Result :: bin 2

Query :: Which bin, given its PBM binding z-score, does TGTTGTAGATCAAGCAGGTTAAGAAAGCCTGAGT occupy?
Result :: bin 1

Query :: Which bin, given its PBM binding z-score, does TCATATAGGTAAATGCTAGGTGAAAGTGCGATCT occupy?
Result :: bin 2

Query :: Which bin, given its PBM binding z-score, does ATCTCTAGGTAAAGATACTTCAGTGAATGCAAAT occupy?
Result :: bin 1

Query :: Which bin, given its PBM binding z-score, does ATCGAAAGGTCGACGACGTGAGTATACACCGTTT occupy?
Result :: bin 3

Query :: Which bin, given its PBM binding z-score, does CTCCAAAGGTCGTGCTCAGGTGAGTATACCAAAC occupy?
Result :: bin 3

Query :: Which bin, given its PBM binding z-score, does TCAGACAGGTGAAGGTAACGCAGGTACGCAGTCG occupy?
Result :: bin 2

###

Entries and their measured PBM binding z-score follow.
Test system: PPARg:RXRa IVT, anti-PPARg (NR concentration 270 nM, RXRa partner concentration 90 nM)
Test: PBM binding z-score (relative to random genomic background probes); higher = stronger binding; sequences stand for … in GC…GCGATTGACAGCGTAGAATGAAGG
// print number alone

These recorded examples may help you get a feel for the data.
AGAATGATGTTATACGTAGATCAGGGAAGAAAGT: -0.0838
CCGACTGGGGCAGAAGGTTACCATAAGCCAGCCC: 1.92
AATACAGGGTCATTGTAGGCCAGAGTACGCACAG: 4.77
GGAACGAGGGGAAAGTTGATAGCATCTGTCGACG: 1.99
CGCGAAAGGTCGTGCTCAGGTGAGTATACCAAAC: 1.92

Per the record, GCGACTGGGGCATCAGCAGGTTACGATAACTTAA has PBM binding z-score of 3.19

Per the record, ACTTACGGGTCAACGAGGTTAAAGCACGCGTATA has PBM binding z-score of 4.19

Per the record, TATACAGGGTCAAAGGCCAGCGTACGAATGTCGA has PBM binding z-score of 4.79

Per the record, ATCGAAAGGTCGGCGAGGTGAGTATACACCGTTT has PBM binding z-score of 1.39

Per the record, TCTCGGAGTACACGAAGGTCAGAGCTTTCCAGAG has PBM binding z-score of 0.734

Per the record, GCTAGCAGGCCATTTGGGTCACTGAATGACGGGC has PBM binding z-score of 2.35

Per the record, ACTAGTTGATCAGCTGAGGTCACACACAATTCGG has PBM binding z-score of 2.14

Per the record, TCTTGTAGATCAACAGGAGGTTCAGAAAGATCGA has PBM binding z-score of 0.779

Per the record, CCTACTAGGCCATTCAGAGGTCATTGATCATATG has PBM binding z-score of 5.01

Per the record, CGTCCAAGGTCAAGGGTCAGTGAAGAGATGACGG has PBM binding z-score of 5.28

Per the record, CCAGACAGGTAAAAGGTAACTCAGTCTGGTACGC has PBM binding z-score of 0.821

Per the record, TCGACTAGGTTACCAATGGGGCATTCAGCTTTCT has PBM binding z-score of 2.87

Per the record, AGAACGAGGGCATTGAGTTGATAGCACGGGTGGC has PBM binding z-score of 2.27

Per the record, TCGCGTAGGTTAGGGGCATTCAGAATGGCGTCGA has PBM binding z-score of -0.148

Per the record, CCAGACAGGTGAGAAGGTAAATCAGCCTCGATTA has PBM binding z-score of 0.856

Per the record, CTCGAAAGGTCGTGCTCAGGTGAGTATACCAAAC has PBM binding z-score of 1.92

Data credit: the supplement of paper PMC6555819
